The following compounds are listed with their measured GI50 values.
- Test system: HCT-116
- protocolDetails: NCI tumour cell line growth inhibition, 48 h
Activity calls are given as the source filed them. Rule as the data show it: active = GI50 up to about 1.1 µM and inactive = higher.

{"compound": "S=c1oc(CCCCCCCCc2nn(CNc3ccc(Cl)cc3)c(=S)o2)nn1CNc1ccc(Cl)cc1", "targetOfAssay": "HCT-116", "GI50": "> 100 µM (inactive)"}

State its GI50 on HCT-116: `CCSSCS(C)(=O)=O` 23.6 µM (inactive)

State its GI50 on HCT-116: `Nc1c(C(=O)c2ccc(Cl)cc2)[nH]c(NCc2ccccc2)c1C(=S)Nc1ccccc1` 1.83 µM (inactive)

State its GI50 on HCT-116: `Cc1c(S(=O)(=O)N/C(=N\O)Nc2ccc(Cl)cc2)sc2ccc(Cl)cc12` 13.9 µM (inactive)

State its GI50 on HCT-116: `Cc1cc2nc3ccccc3n2c2ccccc12` > 10 µM (inactive)

State its GI50 on HCT-116: CCCCCC(O)C(O)CCC[C@H](O)[C@H]1CC[C@H]([C@H]2CC[C@H]([C@H](O)CCCCCCCCCCCCC3=C[C@H](C)OC3=O)O2)O1 (some centres undefined) 1.36 µM (inactive)

State its GI50 on HCT-116: `COC(=O)c1cc(C(=O)OC)cc(-c2ccc3c(c2)-c2nc4c(c(-c5ccc(OC)cc5)c2CC3)CCc2ccc(-c3cc(C(=O)OC)cc(C(=O)OC)c3)cc2-4)c1` > 100 µM (inactive)

State its GI50 on HCT-116: `Cc1ns/c(=N\C(=S)N(C)C)n1C` > 100 µM (inactive)

State its GI50 on HCT-116: `CC(C)=CCC[C@@H](C)c1c2ncc[nH]c-2c(C)c(=O)c1O` 37.1 µM (inactive)

Cited source for all entries: ChEMBL document CHEMBL1201862
